Item-by-item account of pIC50
- measurement target: CDK4/cyclin D3 (Homo sapiens)
- Construct: purchased Carna Biosciences, Inc. QS S Assist CDK4/Cyclin D3_FP Kit
- assay method text: Human CDK4/cyclin D3 inhibitory activity (QS S Assist CDK4/Cyclin D3_FP Kit, IMAP fluorescence polarization)
- Type: biochemical
- experimental conditions: Human CDK4/cyclin D3 inhibitory activity; read-out: CDK4 Activity symbol
pIC50: −log10 of the molar value.

1. CC(C)CN1CCN(c2ccc(Nc3ncc4cc([C@@H](C)O)nc(NC(C)C)c4n3)nn2)CC1 | > 8.00
2. CC(C)Nc1nc(C(F)F)cc2cnc(Nc3ccc(C4CCC(O)CC4)cn3)nc12 (stereo not drawn) | 7.00 to 8.00

Consider now this further compound.
Ask | Please provide the recorded pIC50 for `CC(C)Nc1nc(C(F)F)cc2cnc(Nc3ccc(N)cn3)nc12` , tested on CDK4/cyclin D3 (Homo sapiens).
Reply | > 8.00

###

- measurement target: CDK4/cyclin D3 (Homo sapiens, UniProt P11802)
- Construct: purchased Carna Biosciences, Inc. QS S Assist CDK4/Cyclin D3_FP Kit
- Sequence (P11802 whole entry): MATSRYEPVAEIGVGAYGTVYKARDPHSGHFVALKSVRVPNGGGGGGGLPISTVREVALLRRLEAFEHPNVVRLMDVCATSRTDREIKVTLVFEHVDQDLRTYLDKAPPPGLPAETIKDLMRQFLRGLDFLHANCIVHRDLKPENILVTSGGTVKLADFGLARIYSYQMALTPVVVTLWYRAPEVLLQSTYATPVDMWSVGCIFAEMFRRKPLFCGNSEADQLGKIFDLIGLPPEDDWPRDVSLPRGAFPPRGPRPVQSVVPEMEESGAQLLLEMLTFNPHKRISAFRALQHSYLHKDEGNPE
- Sequence (P30281 whole entry partner): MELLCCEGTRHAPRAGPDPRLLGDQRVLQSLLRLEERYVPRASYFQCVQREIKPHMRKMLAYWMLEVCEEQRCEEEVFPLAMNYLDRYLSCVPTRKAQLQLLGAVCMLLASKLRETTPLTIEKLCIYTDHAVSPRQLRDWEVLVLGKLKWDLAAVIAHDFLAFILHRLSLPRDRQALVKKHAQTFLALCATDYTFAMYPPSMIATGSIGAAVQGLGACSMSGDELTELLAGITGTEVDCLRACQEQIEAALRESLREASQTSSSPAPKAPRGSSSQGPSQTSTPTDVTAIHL
- assay method text: Human CDK4/cyclin D3 inhibitory activity (QS S Assist CDK4/Cyclin D3_FP Kit, IMAP fluorescence polarization)
- Type: biochemical
- experimental conditions: Human CDK4/cyclin D3 inhibitory activity; read-out: CDK4 Activity symbol
pIC50: −log10 of the molar value.
attribute measured: pIC50

Consider the worked cases shown below.
1. COC(C)c1cc2cnc(Nc3ccc(CN4CCNCC4)cn3)nc2c(NCCC2CCCO2)n1 (centres unmarked) [Compound 429] | > 8.00
2. CO[C@H](C)c1cc2cnc(Nc3ccc(N4CCNCC4)nn3)nc2c(N[C@H]2CC[C@H](C(=O)O)CC2)n1 [Compound 339] | 7.00 to 8.00
3. CNCC(F)COc1ccc(Nc2ncc3cc([C@@H](C)OC)nc(NC(C)C)c3n2)nc1 (some centres unmarked) [Compound 509] | > 8.00
4. CC(C)Nc1nc(C(F)F)cc2cnc(Nc3ccc(C(N)=O)cn3)nc12 [Compound 96] | 7.00 to 8.00
5. CC(C)Nc1nc(C(C)O)cc2cnc(Nc3ccc(N4CCC(O)C(F)C4)nn3)nc12 (centres unmarked) [Compound 608] | > 8.00

Ask | Dear colleague, I am looking for the recorded pIC50 of the following molecule: CC(C)Nc1nc([C@@H](C)O)cc2cnc(Nc3ccc(CN4CCC(C(C)(C)O)CC4)cn3)nc12 [Compound 549]
Reply | > 8.00

Ask | Dear colleague, I am looking for the recorded pIC50 of the following molecule: CO[C@H](C)c1cc2cnc(Nc3ccc(N4CCNCCC4=O)cn3)nc2c(NC(C)C)n1 [Compound 499]
Reply | > 8.00

Ask | Dear colleague, I am looking for the recorded pIC50 of the following molecule: COCC(C)(C)Nc1nc([C@@H](C)O)cc2cnc(Nc3ccc(CN4CC[C@@H](F)C4)cn3)nc12 [Compound 292]
Reply | 7.00 to 8.00

###

- measurement target: CDK2/cyclin A2 (Homo sapiens)
- Construct: purchased Carna Biosciences, Inc. QS S Assist CDK2/Cyclin A2_FP Kit
- assay method text: Human CDK2/cyclin A2 inhibitory activity (QS S Assist CDK2/Cyclin A2_FP Kit, IMAP fluorescence polarization)
- Type: biochemical
- experimental conditions: Human CDK2/cyclin A2 inhibitory activity; read-out: CDK2 Activity symbol
Item-by-item account of IC50

Consider the worked cases shown below.
1) C[C@@H](O)c1cc2cnc(Nc3ccc(N4CCNCC4)nn3)nc2c(N[C@H]2CC[C@H](O)CC2)n1 [Compound 340] | ≥ 100 nM
2) CC(C)Nc1nc(C(F)F)cc2cnc(Nc3ccc(N4CCCC(O)C4)nn3)nc12 (stereo not shown) [Compound 226] | 10 to 100 nM
3) CC(C)Nc1nc(C(F)F)cc2cnc(Nc3ccc(CN4CCOCCC4=O)cn3)nc12 [Compound 173] | 10 to 100 nM
4) CO[C@H](C)c1cc2cnc(Nc3ccc(N4CCCCC(N)C4=O)cn3)nc2c(NC(C)C)n1 (stereo partly shown) [Compound 553] | ≥ 100 nM
5) C[C@@H](O)c1cc2cnc(Nc3ccc(N4CCNCC4)nn3)nc2c(NC2CCOCC2)n1 [Compound 250] | ≥ 100 nM

Consider now this further compound.
Ask | Dear colleague, I am looking for the recorded IC50 of the following compound: COCC(C)(C)Nc1nc([C@@H](C)O)cc2cnc(Nc3ccc(N4CCOCC4)cn3)nc12 [Compound 204]
Reply | ≥ 100 nM

###

- measurement target: CDK4/cyclin D3 (Homo sapiens, UniProt P11802)
- Construct: purchased Carna Biosciences, Inc. QS S Assist CDK4/Cyclin D3_FP Kit
- assay method text: Human CDK4/cyclin D3 inhibitory activity (QS S Assist CDK4/Cyclin D3_FP Kit, IMAP fluorescence polarization)
- Assay type: biochemical
- experimental conditions: Human CDK4/cyclin D3 inhibitory activity; read-out: CDK4 Activity symbol
pIC50: −log10 of the molar value.
Item-by-item account of pIC50

1. CC(C)Nc1nc([C@@H](C)O)cc2cnc(Nc3ccc(OCC4CNC4)cn3)nc12 [Compound 570] | > 8.00
2. CC(C)Nc1nc([C@@H](C)O)cc2cnc(Nc3ccc(N4CCNCC4=O)cn3)nc12 [Compound 230] | > 8.00
3. CO[C@H](C)c1cc2cnc(Nc3ccc(CN4CCc5nc(C)[nH]c5C4)cn3)nc2c(NC(C)C)n1 [Compound 277] | ≤ 7.00
4. COCC(C)(C)Nc1nc([C@@H](C)O)cc2cnc(Nc3ccc(CCCN4CCOCC4=O)cn3)nc12 [Compound 193] | 7.00 to 8.00
5. CC(C)Nc1nc(C(F)F)cc2cnc(Nc3ccc(N4CCCC(O)C4)nn3)nc12 (centres unmarked) [Compound 226] | > 8.00
6. CO[C@H](C)c1cc2cnc(Nc3ccc(OC4CCNC4)cn3)nc2c(NC(C)C)n1 (some centres unmarked) [Compound 290] | > 8.00

Ask | Dear colleague, I am looking for the recorded pIC50 of the following compound: CO[C@H](C)c1cc2cnc(Nc3ccc(NC4CCNC4)nn3)nc2c(NC(C)C)n1 (some centres unmarked) [Compound 357]
Reply | > 8.00

Ask | Dear colleague, I am looking for the recorded pIC50 of the following compound: COCC(C)(C)Nc1nc([C@@H](C)O)cc2cnc(Nc3ccc(N4CCOCC4)nn3)nc12 [Compound 216]
Reply | 7.00 to 8.00

###

- measurement target: CDK4/cyclin D3 (Homo sapiens)
- Construct: purchased Carna Biosciences, Inc. QS S Assist CDK4/Cyclin D3_FP Kit
- assay method text: Human CDK4/cyclin D3 inhibitory activity (QS S Assist CDK4/Cyclin D3_FP Kit, IMAP fluorescence polarization)
- Format: biochemical
- experimental conditions: Human CDK4/cyclin D3 inhibitory activity; read-out: CDK4 Activity symbol
Item-by-item account of IC50

Consider the worked cases shown below.
1. COCC(C)Nc1nc(C(C)O)cc2cnc(Nc3ccc(N4CCNCC4)cn3)nc12 (centres unmarked) [Compound 28] | < 10 nM
2. CO[C@@H](C)c1cc2cnc(Nc3ccc(N4CCNCC4)cn3)nc2c(NC(C)C)n1 [Compound 38] | < 10 nM
3. CC(C)Nc1nc(C(F)F)cc2cnc(Nc3ccc(CNS(N)(=O)=O)cn3)nc12 [Compound 187] | 10 to 100 nM

Ask | Dear colleague, I am looking for the recorded IC50 of the following molecule: C[C@@H](O)c1cc2cnc(Nc3ccc(N4CCNCC4)nn3)nc2c(NC(C)(C)C(=O)O)n1 [Compound 315]
Reply | ≥ 100 nM

Ask | Dear colleague, I am looking for the recorded IC50 of the following molecule: CO[C@H](C)c1cc2cnc(Nc3ccc(N4CC5(CC(O)C5)C4)nn3)nc2c(NC(C)C)n1 [Compound 523]
Reply | < 10 nM

Ask | Dear colleague, I am looking for the recorded IC50 of the following molecule: CO[C@H](C)c1cc2cnc(Nc3ccc(N4CCNCC4=O)cn3)nc2c(NC(C)C)n1 [Compound 207]
Reply | < 10 nM

Ask | Dear colleague, I am looking for the recorded IC50 of the following molecule: CO[C@H](C)c1cc2cnc(Nc3ccc(CN4CCNCC4)cn3)nc2c(NC2CCS(=O)(=O)CC2)n1 [Compound 361]
Reply | < 10 nM

###

Item-by-item account of IC50
- measurement target: CDK4/cyclin D3 (Homo sapiens)
- Construct: purchased Carna Biosciences, Inc. QS S Assist CDK4/Cyclin D3_FP Kit
- assay method text: Human CDK4/cyclin D3 inhibitory activity (QS S Assist CDK4/Cyclin D3_FP Kit, IMAP fluorescence polarization)
- Type: biochemical
- experimental conditions: Human CDK4/cyclin D3 inhibitory activity; read-out: CDK4 Activity symbol

Consider the worked cases shown below.
1. CC(C)Nc1nc(C(F)F)cc2cnc(Nc3ccc(C4CCNC(=O)C4)cn3)nc12 (stereo not shown) | < 10 nM
2. COC(C)c1cc2cnc(Nc3ccc(CN4CCNCC4)cn3)nc2c(NC2CCNC(=O)C2)n1 (stereo not shown) | 10 to 100 nM
3. FC(F)c1cc2cnc(Nc3ccc(N4CCNCC4)cn3)nc2c(NC2CC2)n1 | < 10 nM
4. CC(O)c1cc2cnc(Nc3ccc(N4CCNCC4)cn3)nc2c(Nc2ccn[nH]2)n1 (stereo not shown) | 10 to 100 nM
5. CC(C)Nc1nc([C@@H](C)O)cc2cnc(Nc3ccc(N4CCC(N)CC4=O)cn3)nc12 (stereo partly shown) | < 10 nM

Ask | Dear colleague, I am looking for the recorded IC50 of the following compound: `CC(C)Nc1nc([C@@H](C)O)cc2cnc(Nc3ccc(CC(=O)N4CCN(CCO)CC4)cn3)nc12`
Reply | < 10 nM

Ask | Dear colleague, I am looking for the recorded IC50 of the following compound: C[C@@H](O)c1cc2cnc(Nc3ccc(N4CCNCC4)nn3)nc2c(NC2CCCCC2C(=O)O)n1 (stereo partly shown)
Reply | ≥ 100 nM

Ask | Dear colleague, I am looking for the recorded IC50 of the following compound: `CC(C)Nc1nc(C(F)F)cc2cnc(Nc3ccc(CN4CCOCCC4=O)cn3)nc12`
Reply | < 10 nM

Ask | Dear colleague, I am looking for the recorded IC50 of the following compound: COC(C)c1cc2cnc(Nc3ccc(N4CC5CCC(C4)N5)cn3)nc2c(NC(C)C)n1 (stereo not shown)
Reply | < 10 nM

Ask | Dear colleague, I am looking for the recorded IC50 of the following compound: `CC(C)Nc1nc(C(F)F)cc2cnc(Nc3ccc(N4CCN(C)C(=O)C4)cn3)nc12`
Reply | < 10 nM

Ask | Dear colleague, I am looking for the recorded IC50 of the following compound: `CC(C)Nc1nc(C(F)F)cc2cnc(Nc3ccc(CN4CCNC5(CC5)C4)cn3)nc12`
Reply | < 10 nM

Ask | Dear colleague, I am looking for the recorded IC50 of the following compound: `CC(C)Nc1nc(C(F)F)cc2cnc(Nc3ccc(CN4CCOCC4)cn3)nc12`
Reply | < 10 nM

Ask | Dear colleague, I am looking for the recorded IC50 of the following compound: `CC(=O)N(C)Cc1ccc(Nc2ncc3cc(C(F)F)nc(NC(C)C)c3n2)nc1`
Reply | < 10 nM

Ask | Dear colleague, I am looking for the recorded IC50 of the following compound: `CC(C)Nc1nc([C@@H](C)O)cc2cnc(Nc3ccc(O[C@H]4CCNC4)cn3)nc12`
Reply | < 10 nM

Ask | Dear colleague, I am looking for the recorded IC50 of the following compound: `CC(C)Nc1nc(C(F)F)cc2cnc(Nc3ccc(O[C@H]4CC[C@H](O)CC4)cn3)nc12`
Reply | 10 to 100 nM

Ask | Dear colleague, I am looking for the recorded IC50 of the following compound: `CNC(=O)C1CCN(Cc2ccc(Nc3ncc4cc([C@@H](C)OC)nc(NC(C)C)c4n3)nc2)CC1`
Reply | < 10 nM
